Reported aglycon values for a set of compounds
test system: β-Xylosidase derived from pectinase G; assay: Reactivity toward various isoflavone glycosides (HPLC); assay type: biochemical; parameters: unit not given here; settings: Reaction time 0 h; 55 °C, pH 4.0

Check out these entries, answers already filled in.
Consider the compound shown here: COc1cc2c(=O)c(-c3ccc(O)cc3)coc2cc1O[C@@H]1O[C@H](COC(=O)CC(=O)O)[C@@H](O)[C@H](O)[C@H]1O What is its recorded aglycon? 0

Moving on to the next compound: COc1cc2c(=O)c(-c3ccc(O)cc3)coc2cc1O[C@@H]1O[C@H](CO)[C@@H](O)[C@H](O)[C@H]1O 0

Do the same for O=c1c(-c2ccc(O)cc2)coc2cc(O[C@@H]3O[C@H](CO)[C@@H](O)[C@H](O)[C@H]3O)cc(O)c12 please 0

And what about the compound COc1cc2c(=O)c(-c3ccc(O)cc3)coc2cc1O[C@@H]1O[C@H](COC(C)=O)[C@@H](O)[C@H](O)[C@H]1O ? 0

Thanks! And CC(=O)OC[C@H]1O[C@@H](Oc2ccc3c(=O)c(-c4ccc(O)cc4)coc3c2)[C@H](O)[C@@H](O)[C@@H]1O ? 0

API: the following record is the query input.
If you can, please state the reported aglycon value of O=c1c(-c2ccc(O)cc2)coc2cc(O[C@@H]3O[C@H](CO)[C@@H](O)[C@H](O)[C@H]3O)ccc12 . 0.9

###

tested on: Crude diglycosidase; experiment: Examination of substrate concentration in the conversion into isoflavone aglycons by diglycosidase using soybean materials; assay type: biochemical, Penicillium multicolor IAM7153; details: roasted soy flour, substrate concentration 20%, heat treatment of enzyme no, reaction time 0 h;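 further: percent of the isoflavone family total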
Quick reference: Decomposition efficiency: ratio of each glycoside/aglycon within its isoflavone family of the listed items.
Give your result in % as a bare value.

What reported Decomposition efficiency: ratio of each glycoside/aglycon within its isoflavone family corresponds to O=c1c(-c2ccc(O)cc2)coc2cc(O[C@@H]3O[C@H](CO)[C@@H](O)[C@H](O)[C@H]3O)cc(O)c12 on Crude diglycosidase? 50.5

Let us now turn to O=c1c(-c2ccc(O)cc2)coc2cc(O[C@@H]3O[C@H](CO)[C@@H](O)[C@H](O)[C@H]3O)ccc12 50.3

Try this molecule next: CC(=O)OC[C@H]1O[C@@H](Oc2ccc3c(=O)c(-c4ccc(O)cc4)coc3c2)[C@H](O)[C@@H](O)[C@@H]1O 46.1

Could you do the same for COc1cc2c(=O)c(-c3ccc(O)cc3)coc2cc1O , please? 8.6

More entries:
Find Decomposition efficiency: ratio of each glycoside/aglycon within its isoflavone family (Crude diglycosidase) for the entry CC(=O)OC[C@H]1O[C@@H](Oc2cc(O)c3c(=O)c(-c4ccc(O)cc4)coc3c2)[C@H](O)[C@@H](O)[C@@H]1O 46.1

###

test system: β-Xylosidase derived from pectinase G; experiment: Reactivity toward various isoflavone glycosides (HPLC); type: biochemical; parameters: unit not given here; settings: Reaction time 1 h; 55 °C, pH 4.0
Catalogue of glucoside readings, one per entry.
The reply should be a number, written without any unit.

Record excerpt, results attached:
So what's the measured glucoside for this one? O=C(O)CC(=O)OC[C@H]1O[C@@H](Oc2ccc3c(=O)c(-c4ccc(O)cc4)coc3c2)[C@H](O)[C@@H](O)[C@@H]1O [malonyldaidzin, 6″-O-malonyldaidzin] 99.6

What about CC(=O)OC[C@H]1O[C@@H](Oc2ccc3c(=O)c(-c4ccc(O)cc4)coc3c2)[C@H](O)[C@@H](O)[C@@H]1O [acetyldaidzin, 6″-O-acetyldaidzin] ? 90.3

***
Can you share its glucoside? I mean this molecule: COc1cc2c(=O)c(-c3ccc(O)cc3)coc2cc1O[C@@H]1O[C@H](CO)[C@@H](O)[C@H](O)[C@H]1O [glycitin] 99.2

###

system: Crude diglycosidase; assay: Examination of temperature in the conversion into isoflavone aglycons by diglycosidase using soybean materials; type: biochemical, Penicillium multicolor IAM7153; set-up: concentration or dose not given beside the values; settings: 80° C., heat treatment of enzyme no, reaction time 3 h
The entries below come with measured Decomposition efficiency of daidzin family in defatted soybean values attached.
Answer with a number only, understood to be in %.

Fill in the blank: the reported Decomposition efficiency of daidzin family in defatted soybean of O=c1c(-c2ccc(O)cc2)coc2cc(O[C@@H]3O[C@H](CO)[C@@H](O)[C@H](O)[C@H]3O)ccc12 is ____. 19.2

Note, next up: O=C(O)CC(=O)OC[C@H]1O[C@@H](Oc2ccc3c(=O)c(-c4ccc(O)cc4)coc3c2)[C@H](O)[C@@H](O)[C@@H]1O 28.8

Continuing:
Which measured Decomposition efficiency of daidzin family in defatted soybean value corresponds to O=c1c(-c2ccc(O)cc2)coc2cc(O)ccc12 ? 52.0

###

Form field: Decomposition efficiency: ratio of each glycoside/aglycon within its isoflavone family (one value per entry).
tested on: Crude diglycosidase; assay: Examination of substrate concentration in the conversion into isoflavone aglycons by diglycosidase using soybean materials; format: biochemical, Penicillium multicolor IAM7153; conditions: soymilk, substrate concentration 30%, heat treatment of enzyme no, reaction time 3 h;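 further: percent of the isoflavone family total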

Need Decomposition efficiency: ratio of each glycoside/aglycon within its isoflavone family, item COc1cc2c(=O)c(-c3ccc(O)cc3)coc2cc1O 84.1%

Pending compound:
Look at this compound and give its reported Decomposition efficiency: ratio of each glycoside/aglycon within its isoflavone family. O=C(O)CC(=O)OC[C@H]1O[C@@H](Oc2cc(O)c3c(=O)c(-c4ccc(O)cc4)coc3c2)[C@H](O)[C@@H](O)[C@@H]1O 25.4%

###

test system: Crude diglycosidase; test: Examination of substrate concentration in the conversion into isoflavone aglycons by diglycosidase using soybean materials; type: biochemical, Penicillium multicolor IAM7153; conditions: soymilk, substrate concentration 10%, heat treatment of enzyme no, reaction time 3 h;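 further: percent of the isoflavone family total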
quantity: Decomposition efficiency: ratio of each glycoside/aglycon within its isoflavone family (%)
Expressed in %, but write only the number.

Fill in the blank: the reported Decomposition efficiency: ratio of each glycoside/aglycon within its isoflavone family of O=C(O)CC(=O)OC[C@H]1O[C@@H](Oc2ccc3c(=O)c(-c4ccc(O)cc4)coc3c2)[C@H](O)[C@@H](O)[C@@H]1O [malonyldaidzin, 6″-O-malonyldaidzin] is ____. 20.5

// same read-out, input: COc1cc2c(=O)c(-c3ccc(O)cc3)coc2cc1O [glycitein] 89.5

With those in mind, consider the next molecule.
For O=C(O)CC(=O)OC[C@H]1O[C@@H](Oc2cc(O)c3c(=O)c(-c4ccc(O)cc4)coc3c2)[C@H](O)[C@@H](O)[C@@H]1O [malonylgenistin, 6″-O-malonylgenistin] , what is its reported Decomposition efficiency: ratio of each glycoside/aglycon within its isoflavone family? 11.9

###

tested on: Crude diglycosidase; test: Examination of pH in the conversion into isoflavone aglycons by diglycosidase using soybean materials; type: biochemical, Penicillium multicolor IAM7153; conditions: pH6.2; heat treatment of enzyme: no; reaction time 1 h
quantity: Decomposition efficiency of daidzin family in soymilk

Consider the molecule shown here: O=C(O)CC(=O)OC[C@H]1O[C@@H](Oc2ccc3c(=O)c(-c4ccc(O)cc4)coc3c2)[C@H](O)[C@@H](O)[C@@H]1O [malonyldaidzin, 6″-O-malonyldaidzin] What is its recorded Decomposition efficiency of daidzin family in soymilk? 54.1%

Field entry: CC(=O)OC[C@H]1O[C@@H](Oc2ccc3c(=O)c(-c4ccc(O)cc4)coc3c2)[C@H](O)[C@@H](O)[C@@H]1O [acetyldaidzin, 6″-O-acetyldaidzin] not detected

And for O=c1c(-c2ccc(O)cc2)coc2cc(O)ccc12 [daidzein] ? 45.9%

Cool, now O=c1c(-c2ccc(O)cc2)coc2cc(O[C@@H]3O[C@H](CO)[C@@H](O)[C@H](O)[C@H]3O)ccc12 [daidzin] not detected

###

# reported Decomposition efficiency: ratio of each glycoside/aglycon within its isoflavone family; entries follow
test system: Crude diglycosidase; assay: Examination of substrate concentration in the conversion into isoflavone aglycons by diglycosidase using soybean materials; type: biochemical, Penicillium multicolor IAM7153; settings: concentrated soybean protein, substrate concentration 2%, heat treatment of enzyme yes, reaction time 6 h;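 further: percent of the isoflavone family total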
Number only, in %; omit the unit.

A selection of reference data follows.
For the compound shown here, COc1cc2c(=O)c(-c3ccc(O)cc3)coc2cc1O[C@@H]1O[C@H](CO)[C@@H](O)[C@H](O)[C@H]1O , give the reported Decomposition efficiency: ratio of each glycoside/aglycon within its isoflavone family. 53.4

Also CC(=O)OC[C@H]1O[C@@H](Oc2ccc3c(=O)c(-c4ccc(O)cc4)coc3c2)[C@H](O)[C@@H](O)[C@@H]1O , if possible. 43.2

Let us now turn to COc1cc2c(=O)c(-c3ccc(O)cc3)coc2cc1O[C@@H]1O[C@H](COC(C)=O)[C@@H](O)[C@H](O)[C@H]1O 35.0

Now take the following compound into account.
Given O=c1c(-c2ccc(O)cc2)coc2cc(O[C@@H]3O[C@H](CO)[C@@H](O)[C@H](O)[C@H]3O)ccc12 , state its recorded Decomposition efficiency: ratio of each glycoside/aglycon within its isoflavone family. 52.6
